# Tested on: CAKI-1 renal
# assay.info: NCI tumour cell line growth inhibition, 48 h; in the data active = GI50 below about 0.43 µM; inactive = the rest
Hello, when you answer, please use one of the following outcomes: active, inactive

Consider the following illustrative entries.
O=C(Nc1cccc(-n2cc(-c3ccncc3)c(-c3cc(O)cc(Cl)c3)n2)c1)c1ccc(N2CCOCC2)c(C(F)(F)F)c1; inactive
FC(F)(F)Oc1cccc(-c2cc(NCCCCCCNc3cc(-c4cccc(OC(F)(F)F)c4)nc4ccc(N5CCCC5)cc34)c3cc(N4CCCC4)ccc3n2)c1; inactive

We now examine a further molecule.
Which outcome was assigned to `Cc1cccc(NC(=O)c2sc3nc4c(cc3c2N)C(=O)CCC4)c1` in this test?
active

---

# Test system: OVCAR-4 ovarian
# assay.info: NCI tumour cell line growth inhibition, 48 h
experimental.endpoint: TGI (µM)
Field format: number, assumed µM, no unit text.

O=C1/C(=C\c2ccccc2)CN(C(=O)CCN2CCCCC2)C/C1=C/c1ccccc1; 4.34
CCN(CC)CCCNc1ccc(C)c2sc3ccccc3c(=O)c12; 33
N#CC1c2ccccc2C=CN1C(=O)CCCl (centres undefined); 10.7

Now let's try a different one.
Record `CN[C@@H](C)C(=O)N[C@H]1CN(S(=O)(=O)c2cccc(S(=O)(=O)N3CC[C@H]4CC[C@@H](C(=O)NC(c5ccccc5)c5ccccc5)N4C(=O)[C@@H](NC(=O)[C@H](C)NC)C3)c2)CC[C@H]2CC[C@@H](C(=O)NC(c3ccccc3)c3ccccc3)N2C1=O` : what is its TGI with OVCAR-4 ovarian?
0.128

---

# Tested on: MDA-MB-435
# assay.info: NCI tumour cell line growth inhibition, 48 h
experimental.endpoint: log10 of TGI (log10 of the value in µM)
Base-10 log of TGI, unit µM.

CC(C)C(Br)CCC1=CCC(Br)(Br)C1 (centres undefined); 1.35

GET /values?readout=log10 of TGI&item= `CCN=c1sc2c(n1NC(=O)c1cc3ccc1CCc1ccc(cc1)CC3)C(=O)c1ccccc1C2=O`
0.04

GET /values?readout=log10 of TGI&item= `OC1(c2ccc(Cl)c(C(F)(F)F)c2)CCN(CCCC(c2ccc(F)cc2)c2ccc(F)cc2)CC1`
0.18

GET /values?readout=log10 of TGI&item= `CCCCCCCCCCCCCCCCCCOc1ccccc1CC(=O)NCC[N+]1(C)CCOCC1`
1.52

GET /values?readout=log10 of TGI&item= `O=C1C=CC2(O[C@H](c3ccccc3)[C@@H](c3ccccc3)O2)[C@H](Sc2ccccc2O)C1`
-0.01

GET /values?readout=log10 of TGI&item= CCOC1C=CC(=O)C(CO)O1 (centres undefined)
1.41

GET /values?readout=log10 of TGI&item= `COc1ccc(OC)c(NCC(=O)n2nc(/C=C\c3ccc(O)c(OC)c3)cc2/C=C\c2ccc(O)c(OC)c2)c1`
0.98

---

# System: OVCAR-3 ovarian
# assay.info: NCI tumour cell line growth inhibition, 48 h
experimental.endpoint: TGI

GET /values?readout=TGI&item= `O=c1oc2ccc3ccccc3c2cc1-c1cn2ccsc2n1`
43.8 µM

GET /values?readout=TGI&item= `CCCCCCN(CCCCCC)C(=S)N/N=C(\C)c1ccccn1`
2.83 µM

GET /values?readout=TGI&item= CC(=O)ON1CCCC(P(=O)(OCOC(=O)C(C)(C)C)OCOC(=O)C(C)(C)C)C1=O (stereo unspecified)
4.49 µM

GET /values?readout=TGI&item= `CCc1c(O)cc(=O)oc1-c1ccc(OC)c(OC)c1`
> 100 µM

GET /values?readout=TGI&item= `O=c1ccc2ccc(S)cc2o1`
> 100 µM

GET /values?readout=TGI&item= [N-]=[N+]=CC(=O)C1CCCN1C(=O)c1ccccc1 (stereo unspecified)
> 10 µM

GET /values?readout=TGI&item= COC(=O)[C@]1(C)CCC[C@@]2(C)C1CC[C@]13C=C(C(C)C)[C@H](CC21)CC3(Cl)C#N (stereo partly specified)
> 100 µM

GET /values?readout=TGI&item= `NC1=CC(=O)c2c(O)ccc(O)c2C1=O`
8.45 µM

GET /values?readout=TGI&item= `O=C1NC(=O)c2c1n(Cc1ccccc1)c(=O)n2Cc1ccccc1`
> 100 µM

GET /values?readout=TGI&item= `Cn1nccc1Nc1nccc(-c2ccn([C@H](CO)c3ccc(Cl)c(F)c3)c(=O)c2)n1`
> 100 µM

GET /values?readout=TGI&item= `CCc1cccc(C)c1NC(=O)CCc1nc(=S)[nH][nH]1`
> 100 µM

---

# System: SK-MEL-28 melanoma
# assay.info: NCI tumour cell line growth inhibition, 48 h
experimental.endpoint: TGI (µM)
Field format: number, assumed µM, no unit text.

Examples with answers:
O=C(ON=C1c2ccccc2C(Br)C(Br)c2ccccc21)c1ccccc1 (centres undefined); 33.2
CC(C)C(Br)CCC1=CCC(Br)(Br)C1 (centres undefined); 29
O=C(/C=C/C12c3ccccc3C(c3ccccc31)C1C(=O)NC(=O)C12)c1ccccn1 (centres undefined); 3.86

GET /values?readout=TGI&item= `CN(C)CCn1c(=O)c2ccc(NCCCN(C)CCCNc3ccc4c(=O)n(CCN(C)C)c(=O)n5c6ccc(O)cc6c(=O)c3c45)c3c(=O)c4cc(O)ccc4n(c1=O)c23`
1.19

---

Listed below: TGI values for each entry.
# System: HOP-62 NSCLC
# assay.info: NCI tumour cell line growth inhibition, 48 h

S=C(Cc1ccc2c(c1)Sc1ccccc1O2)N1CCOCC1; > 100 µM
O=C1NC2=C(CCCCC/C2=N\O)C12CCCCCC2; > 100 µM
CCOC(=O)c1c(N2CCCC2)[nH]c(=O)c(C(c2ccc(OC)cc2)c2c(O)c(C(=O)OCC)c(N3CCCC3)[nH]c2=O)c1O; > 100 µM
CSC1=Nc2c(c(C)c(C)n2COC(CO)CO)C2=NC(=O)CN12; > 100 µM
CN(O)C(=O)/C=C/c1ccc(OCc2cccc(Cl)c2)cc1; > 100 µM
CCN1C(=S)N(CC)C2C1NC(=S)N2/N=C/C=C/c1ccccc1OC (stereo not given); > 100 µM
c1ccc2c(c1)SCCCS2; > 100 µM
COC(=O)/C=C(\C)CC/C=C(\C)CCC1OC1(C)C (stereo not given); 26.7 µM

Record Cc1c(C)n(-c2ccccc2)c2nc(S(C)=O)nc(S(C)=O)c12 (stereo not given) : what is its TGI with HOP-62 NSCLC?
36.5 µM

Record COC(=O)/C=C(/C=C1/C(C#N)=C(N)N(c2ccc(Cl)cc2)C1(C)/C(=C\C(=O)OC)C(=O)OC)C(=O)OC (stereo not given) : what is its TGI with HOP-62 NSCLC?
> 100 µM

---

# System: U251 CNS
# assay.info: NCI tumour cell line growth inhibition, 48 h
Listed below: TGI values for each entry.

Examples with answers:
CCOC(=O)CSc1nc(N)c2c(-c3ccccc3)c3c(nc2n1)CCCC3; > 100 µM
NNC(=O)C(=O)N/N=C1/CCCC1C(=O)CCC(=O)Nc1ccc(Cl)cc1 (configuration not stated); > 100 µM
Cc1ccccc1-c1nc2c(N)nc(N)nc2nc1N; > 100 µM
COc1ccc2sc3c(NCCCN)nc4ccccc4c3c(=O)c2c1; 3.19 µM
NCCN1CCCCCc2ccccc21; > 10 µM

GET /values?readout=TGI&item= COC(=O)[C@]1(C)CCC[C@@]2(C)C1CC[C@]13C=C(C(C)C)[C@H](CC21)CC3(Cl)C#N (some centres not stated)
49.4 µM

GET /values?readout=TGI&item= `COc1cc2c(cc1Nc1nc(N3CCc4ccccc43)c3cc[nH]c3n1)N(C(=O)CN(C)C)CC2`
9.83 µM

GET /values?readout=TGI&item= COc1ccc(C)cc1N1C(=O)C2ON(Cc3ccc(CC(N)=O)cc3)C(c3c4ccccc4c(Cl)c4ccccc34)C2C1=O (configuration not stated)
60.4 µM

GET /values?readout=TGI&item= `COc1cc(CNc2nc3cc(N)cc(N)c3nc2-c2ccccc2)cc(OC)c1`
> 100 µM

GET /values?readout=TGI&item= COC(=O)/C=C(/C(=O)OC)C1(C)c2cc(C(=O)OC)c(C(=O)OC)c(N)c2C(=N)N1c1ccccc1 (configuration not stated)
48.9 µM

GET /values?readout=TGI&item= `CN(C)c1nc(Oc2nc(N(C)C)nc(N(C)C)n2)nc(N(C)C)n1`
> 100 µM

GET /values?readout=TGI&item= `COc1ccc2c(c1)c1c(n2CCN2CCCCC2)-c2cccc(OC)c2CC1`
29.9 µM

GET /values?readout=TGI&item= `COCOc1ccc(C(=O)Oc2cccc3c2OC(C)(C)O3)c(OCOC)c1`
> 100 µM

GET /values?readout=TGI&item= `S=C(Cc1ccc2c(c1)Sc1ccccc1O2)N1CCOCC1`
> 100 µM

---

# Test system: EKVX NSCLC
# assay.info: NCI tumour cell line growth inhibition, 48 h
experimental.endpoint: TGI

Examples with answers:
O=C1NC(=O)c2c1n(Cc1ccccc1)c(=O)n2Cc1ccccc1; > 100 µM
CCN1C(=S)N(CC)C2C1NC(=S)N2/N=C/C=C/c1ccccc1OC (stereo unspecified); > 100 µM
O=C1CC(c2ccccc2)Oc2ccccc21 (stereo unspecified); > 100 µM

Now let's try a different one.
GET /values?readout=TGI&item= COc1ccc(C)cc1N1C(=O)C2ON(Cc3ccc(CC(N)=O)cc3)C(c3c4ccccc4c(Cl)c4ccccc34)C2C1=O (stereo unspecified)
98 µM
